targetOrTestSystem: Autotaxin (Homo sapiens, UniProt Q13822)
assayText: Inhibition of human ATX using LPC as substrate assessed as choline release measured after 1.5 hrs by fluorescence based assay
quantityName: pIC50
Give bare numbers, as −log10 of the molar value.

(Q) // lookup pIC50 for "Cc1c(Sc2cccc(C(=O)O)c2F)c2ccc(Cl)c(F)c2n1C(=O)N1CC2(CC2)c2ccccc21"
(A) 8.70

----------
targetOrTestSystem: Autotaxin (Homo sapiens, UniProt Q13822)
assayText: Inhibition of recombinant human ATX expressed in Sf9 cells using FS-3 as substrate measured after 1 hrs by fluorescence based assay
Give measured pIC50 for each item. Keep answers brief.
One number for each entry, as −log10 of the molar value.

[[record]]
structurenotation = "CS(=O)(=O)N(c1cc(C(=O)Nc2cc(F)c(F)c(F)c2)c(Cl)cc1Cl)C1CCOCC1"
targetortestsystem = "Autotaxin (Homo sapiens, UniProt Q13822)"
number = 6.66


Could you now consider this next compound?
(Q) GET /values?readout=pIC50&system=Autotaxin (Homo sapiens, UniProt Q13822)&item= "CS(=O)(=O)N(c1cc(C(=O)Nc2cc(F)c(Cl)c(F)c2)c(Cl)cc1Cl)C1CCOCC1"
(A) 6.66

----------
targetOrTestSystem: Autotaxin (Homo sapiens)
assayText: Inhibition of human ATX using LPC as substrate measured after 2 hrs by fluorescence based choline release assay
quantityName: IC50 (nM)
Numbers only, in nM.

[[record]]
structurenotation = "O=C(Nc1cccc(F)c1)c1cc(S(=O)(=O)N2CCOCC2)c(Cl)cc1Cl"
scaleunit = "nM"
number = 43.6


(Q) // lookup IC50 for "O=C(Nc1ccc(Br)cc1)c1cc(S(=O)(=O)N2CCCCC2)c(Cl)cc1Cl"
(A) 23

----------
targetOrTestSystem: Autotaxin (Homo sapiens, UniProt Q13822)
assayText: Inhibition of ATX (unknown origin) using FS-3 as substrate
quantityName: IC50 (nM)
Answers are plain numbers, in nM.

(Q) // lookup IC50 for "CCc1nc2c(C)cc(-c3ccc(C(=O)N4CCN(CCO)CC4)cc3)cn2c1NC(=O)OCc1ccc2c(c1)OCO2"
(A) 2.7

----------
targetOrTestSystem: Autotaxin (Homo sapiens, UniProt Q13822)
assayText: Inhibition of ATX in human blood
Format: tissue-based
quantityName: IC50 (nM)
Give bare numbers, in nM.

(Q) // lookup IC50 for "CCCn1cc(-n2c(C)c(Sc3cccc(C(=O)O)c3F)c3ccc(Cl)c(F)c32)cn1"
(A) 8.9

----------
targetOrTestSystem: Autotaxin (Homo sapiens, UniProt Q13822)
assayText: Inhibition of human ATX using LPC as substrate preincubated for 30 mins followed by substrate addition measured after 90 mins by choline release assay
quantityName: pIC50
Give bare numbers, as −log10 of the molar value.

(Q) // lookup pIC50 for "N#CC1=C(N)Oc2n[nH]c(-c3ccc(OCc4ccc(F)cc4)cc3)c2[C@H]1c1ccc(Cl)c(Cl)c1"
(A) 6.87
